Target: pre-existing anti-scFv903 antibodies in human serum H20 (human)
Assay: competition ADA bridging ELISA
Measured quantity: signal change in competition ELISA (% reduction in OD) (%)
Output spec: scalar in %, unitless text.

{"Binder": "scFv 961 (scFv) scFv: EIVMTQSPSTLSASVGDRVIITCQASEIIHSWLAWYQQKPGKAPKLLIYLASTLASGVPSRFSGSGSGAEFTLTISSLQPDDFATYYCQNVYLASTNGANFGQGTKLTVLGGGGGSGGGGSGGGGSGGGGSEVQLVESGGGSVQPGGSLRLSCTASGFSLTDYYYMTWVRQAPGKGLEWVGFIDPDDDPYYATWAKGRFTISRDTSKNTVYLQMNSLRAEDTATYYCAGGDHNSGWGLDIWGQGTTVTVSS", "Units of measure": "%", "Endpoint value": -23}
{"Binder": "scFv 903 (scFv) scFv: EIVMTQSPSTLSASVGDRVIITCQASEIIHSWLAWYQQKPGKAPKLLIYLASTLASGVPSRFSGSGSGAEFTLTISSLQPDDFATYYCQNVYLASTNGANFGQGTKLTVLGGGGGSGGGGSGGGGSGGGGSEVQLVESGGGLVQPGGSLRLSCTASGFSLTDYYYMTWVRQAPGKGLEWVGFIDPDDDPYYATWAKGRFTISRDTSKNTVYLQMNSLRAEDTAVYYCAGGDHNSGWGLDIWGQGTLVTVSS", "Units of measure": "%", "Endpoint value": -92}
{"Binder": "scFv 791 (scFv) scFv: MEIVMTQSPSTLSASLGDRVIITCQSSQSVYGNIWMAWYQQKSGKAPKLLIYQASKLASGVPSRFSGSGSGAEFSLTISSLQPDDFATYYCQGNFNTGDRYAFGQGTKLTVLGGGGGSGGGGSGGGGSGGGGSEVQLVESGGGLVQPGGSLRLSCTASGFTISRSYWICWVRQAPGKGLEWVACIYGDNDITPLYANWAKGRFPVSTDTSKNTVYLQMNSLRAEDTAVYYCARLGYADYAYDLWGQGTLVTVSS", "Units of measure": "%", "Endpoint value": -96}

Please look at the following binder next.
Record request: signal change in competition ELISA (% reduction in OD) value, item scFv105 (scFv) scFv: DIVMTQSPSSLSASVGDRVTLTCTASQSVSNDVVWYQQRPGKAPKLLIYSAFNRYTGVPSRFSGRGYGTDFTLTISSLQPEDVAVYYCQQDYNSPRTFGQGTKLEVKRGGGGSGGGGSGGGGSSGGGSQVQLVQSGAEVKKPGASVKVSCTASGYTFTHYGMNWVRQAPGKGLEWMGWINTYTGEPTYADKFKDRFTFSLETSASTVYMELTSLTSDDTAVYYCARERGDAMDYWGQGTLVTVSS
-19
